test system: Rhipicephalus sanguineus; assay: Parasiticidal activity against Rhipicephalus sanguineus assessed as mortality after 24 hrs by brown dog tick assay; type: functional; design: concentration or dose not given beside the values
Listing: Activity of selected compounds

Example entries begin here.
{"columns": ["Compound string", "System", "Activity"],
 "data": [
  ["COCCO/N=C(\\C)c1cc(Cl)ccc1NS(=O)(=O)C(F)(F)F", "Rhipicephalus sanguineus", "100%"],
  ["C=CCO/N=C(\\C)c1cc(Cl)ccc1NS(=O)(=O)C(F)(F)F", "Rhipicephalus sanguineus", "100%"]
]}

// lookup Activity | system=Rhipicephalus sanguineus | key= `O=S(=O)(Nc1ccc(Cl)cc1/C(=N/OC1CCCCC1)c1ccccc1)C(F)(F)F` 45%

// lookup Activity | system=Rhipicephalus sanguineus | key= `CC/C(=N\Oc1ccc(F)cc1)c1cc(Cl)ccc1NS(=O)(=O)C(F)(F)F` 92%

// lookup Activity | system=Rhipicephalus sanguineus | key= `C=CCO/N=C(\CC)c1cc(Cl)ccc1NS(=O)(=O)C(F)(F)F` 100%

// lookup Activity | system=Rhipicephalus sanguineus | key= `CCO/N=C(\C)c1ccccc1NS(=O)(=O)C(F)(F)F` 90%
